pKi: −log10 of the molar value.
Target or system rat orexin 1 receptor (Rattus norvegicus, UniProt P56718); metric pKi; compiled from varied reports.
Sequence (P56718 whole entry, looked up): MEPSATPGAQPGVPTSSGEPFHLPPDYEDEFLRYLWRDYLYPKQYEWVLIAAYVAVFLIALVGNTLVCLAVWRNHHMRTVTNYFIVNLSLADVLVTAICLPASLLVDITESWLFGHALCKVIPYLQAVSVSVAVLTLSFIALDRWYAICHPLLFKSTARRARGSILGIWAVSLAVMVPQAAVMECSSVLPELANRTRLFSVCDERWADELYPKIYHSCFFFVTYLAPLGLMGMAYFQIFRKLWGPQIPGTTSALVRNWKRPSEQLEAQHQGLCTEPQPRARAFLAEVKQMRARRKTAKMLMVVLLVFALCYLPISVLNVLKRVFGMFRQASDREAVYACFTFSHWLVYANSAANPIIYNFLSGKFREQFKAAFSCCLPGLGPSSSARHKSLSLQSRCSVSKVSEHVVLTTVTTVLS
quantity-name: pKi

Query: Respond only with pKi recorded for C[C@@H]1[C@H]2C[C@@H](Oc3ccc(C(F)(F)F)nc3)[C@H](C2)N1C(=O)c1ncccc1-n1nccn1 (relative stereo)
Response: 5.43

Query: Give the reported value of pKi for this record: C[C@@H]1CC[C@@H](COc2ccc(F)cn2)CN1C(=O)c1cc(CO)ccc1-c1ncccn1
Response: 7.52

Query: Provide pKi value for the following compound: C[C@@H]1[C@H]2C[C@@H](Nc3ccc(C(F)(F)F)cn3)[C@H](C2)N1C(=O)c1ncccc1-c1ncccn1 (relative stereo)
Response: 8.30

[a] C[C@@H]1[C@H]2C[C@@H](Oc3ccc(C(F)(F)F)cn3)[C@H](C2)N1C(=O)c1ccc(F)cc1-n1nccn1 (relative stereo)
[b] Cc1cnc(C(=O)N2CCC[C@@H](Nc3cnc(C(F)(F)F)cn3)[C@@H]2C)c(-c2ncco2)c1
Query: Hi, I'm comparing two records. Which one has the lower pKi, a or b ? Pick one; state its label.
Response: b
(b: 7.24, a: 8.22)
